All figures here come from ChEMBL document CHEMBL1938295.

tested on: NCI-H460; experiment: Cytotoxicity against human H460 cells after 24 to 48 hrs by MTT assay; assay type: functional, cell-based
Measure Name: IC50 (µM)
Quick reminder: number only, in µM, skip the unit.

**Query** Return the recorded IC50 value; entry: `COc1ccc(/C=C/C(=O)/C=C/c2nc3cc([N+](=O)[O-])ccc3n2C)cc1O`
**Result** 10.5

**Query** // fetch IC50 given entry `COc1ccc(/C=C/C(=O)/C=C/c2nc3ccccc3n2C)cc1O`
**Result** 6.9

**Query** Fill in IC50 for record `COc1cc(/C=C/C(=O)/C=C/c2nc3ccccc3n2C)ccc1O`
**Result** 7

**Query** Item `COc1ccc(/C=C/C(=O)/C=C/c2nc3cc(Cl)ccc3n2C)cc1O` : provide IC50
**Result** 7.3

**Query** Look up and report measured IC50 for this entry: `COc1cc(/C=C/C(=O)/C=C/c2nc3c(C)cccc3n2C)ccc1O`
**Result** 3

**Query** Note IC50 for the compound shown: `COc1ccc(/C=C/C(=O)/C=C/c2nc3c(C)cccc3n2C)cc1O`
**Result** 25.4

**Query** Identify measured IC50 associated with `COc1cc(/C=C/C(=O)/C=C/c2nc3cc(C)ccc3n2C)ccc1O`
**Result** 7.7

**Query** Read the entry `COc1ccc2c(c1)nc(/C=C/C(=O)/C=C/c1ccc(OC)c(O)c1)n2C` and write its reported IC50.
**Result** 11.7

**Query** Entry `COc1cc(/C=C/C(=O)/C=C/c2nc3cc([N+](=O)[O-])ccc3n2C)ccc1O` needs its IC50 filled in; supply it.
**Result** 6.7

**Query** Dear colleague, please send me the reported IC50 for `COc1cc(/C=C/C(=O)/C=C/c2nc3c(C)c(C)ccc3n2C)ccc1O` when you can.
**Result** 31.9
